test system: MDA-MB-435; assay: Induction of apoptosis in human MDA-MB-435 cells assessed as apoptotic nuclei at 5 uM after 24 hrs by acridine orange/ethidium bromide staining based fluorescence microscopy; assay type: functional

compound: O=C1c2ccccc2C(=O)c2c1ccc1nc(-c3ccccc3)[nH]c21
Activity (%): 9.02
//
compound: Cc1ccc(-c2nc3ccc4c(c3[nH]2)C(=O)c2ccccc2C4=O)cc1
Activity (%): 7.49
//
compound: Cc1ccccc1-c1nc2ccc3c(c2[nH]1)C(=O)c1ccccc1C3=O
Activity (%): 6.33
//
compound: CC(C)=CCC1=C(OC2(CC=C(C)C)C(=O)C(=O)c3ccccc3C2=O)C(=O)c2ccccc2C1=O (centres undefined)
Activity (%): 4.72
